- Assay Comment: Tissue distribution of PZ-DHA and metabolites after intraperitoneal injection
- Format: in vivo, Balb/c female mice
- Condition Description: female, Balb/c, mouse, liver/serum, intraperitoneal, 100 mg/kg; 30 min; read-out: Tissue/serum ratio of PZ-DHA (Mean ± SD) Liver/serum
- Experimental: Figure 5 PZ-DHA and metabolites were detected in various organs of PZ-DHA-treated Balb/c female mice. PZ-DHA (100 mg/kg) was administered by intraperitoneal injection to Balb/c female mice and liver, lungs, kidneys, spleen and brain were harvested. Organs were homogenized and PZ-DHA in (A) liver, kidneys, lungs, spleen, and brain was identified and quantified using a calibration curve. […]
Measurement Name: Kp at 30 min
Write no unit; give the number alone.

Sample CC/C=C\C/C=C\C/C=C\C/C=C\C/C=C\C/C=C\CCC(=O)OC[C@H]1O[C@@H](Oc2cc(O)cc(O)c2C(=O)CCc2ccc(O)cc2)[C@H](O)[C@@H](O)[C@@H]1O [PZ-DHA, phloridzin docosahexaenoate] — what was its Kp at 30 min?
0.16

---

- Assay Comment: Tissue distribution of PZ-DHA and metabolites after intraperitoneal injection
- Type: in vivo, Balb/c female mice
- Condition Description: female, Balb/c, mouse, kidneys/serum, intraperitoneal, 100 mg/kg; 60 min; read-out: Tissue/serum ratio of PZ-DHA (Mean ± SD) Kidneys/serum
Measurement Name: Kp at 60 min
Write no unit; give the number alone.

Sample CC/C=C\C/C=C\C/C=C\C/C=C\C/C=C\C/C=C\CCC(=O)OC[C@H]1O[C@@H](Oc2cc(O)cc(O)c2C(=O)CCc2ccc(O)cc2)[C@H](O)[C@@H](O)[C@@H]1O [PZ-DHA, phloridzin docosahexaenoate] — what was its Kp at 60 min?
0.81

---

- Assay Comment: Tissue distribution of PZ-DHA and metabolites after intraperitoneal injection
- Type: in vivo, Balb/c female mice
- Condition Description: female, Balb/c, mouse, lungs/serum, intraperitoneal, 100 mg/kg; 15 min; read-out: Tissue/serum ratio of PZ-DHA (Mean ± SD) Lungs/serum
Measurement Name: Kp at 15 min

Sample CC/C=C\C/C=C\C/C=C\C/C=C\C/C=C\C/C=C\CCC(=O)OC[C@H]1O[C@@H](Oc2cc(O)cc(O)c2C(=O)CCc2ccc(O)cc2)[C@H](O)[C@@H](O)[C@@H]1O [PZ-DHA, phloridzin docosahexaenoate] — what was its Kp at 15 min?
3.33

---

- Assay Comment: Tissue distribution of PZ-DHA and metabolites after intraperitoneal injection
- Format: in vivo, Balb/c female mice
- Condition Description: female, Balb/c, mouse, liver/serum, intraperitoneal, 100 mg/kg; 90 min; read-out: Tissue/serum ratio of PZ-DHA (Mean ± SD) Liver/serum
- Method: Figure 5 PZ-DHA and metabolites were detected in various organs of PZ-DHA-treated Balb/c female mice. PZ-DHA (100 mg/kg) was administered by intraperitoneal injection to Balb/c female mice and liver, lungs, kidneys, spleen and brain were harvested. Organs were homogenized and PZ-DHA in (A) liver, kidneys, lungs, spleen, and brain was identified and quantified using a calibration curve. […]
Measurement Name: Kp at 90 min

Sample CC/C=C\C/C=C\C/C=C\C/C=C\C/C=C\C/C=C\CCC(=O)OC[C@H]1O[C@@H](Oc2cc(O)cc(O)c2C(=O)CCc2ccc(O)cc2)[C@H](O)[C@@H](O)[C@@H]1O [PZ-DHA, phloridzin docosahexaenoate] — what was its Kp at 90 min?
2.69

All figures here come from paper PMC7721897.
